target: MAGI2_3, Q86UL8; assay: holdup assay; design: key: below the threshold = too weak to quantify, mostly under pKd 3.1 to 4; settings: plain residues with an end cap or a label only (N-terminal biotin on a linker: ado-ado)
Sequence (Q86UL8 600-682): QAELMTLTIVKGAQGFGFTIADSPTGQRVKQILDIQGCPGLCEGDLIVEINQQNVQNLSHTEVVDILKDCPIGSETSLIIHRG
parameter: pKd
// return a plain number; no unit text

>>> result("TKGPRGPTRV [SAPCD1, Q5SSQ6]")
4.69

Consider the additional binder presented here.
Look up pKd for this binder: QGPVETESVV [SLC45A4, Q5BKX6] 3.65
